Could you please report measured GI50 for the items listed next?
Tested on: SF-539
Test: NCI tumour cell line growth inhibition, 48 h
The source made the active and inactive calls. No stated cut-off is given here; in the data, active = GI50 up to about 1.1 µM and inactive = higher.

Consider the following illustrative entries.
molecule=CCOP(=O)(CC(=O)C1CC1)OCC readout_kind=GI50 result="> 100 µM (inactive)"
molecule=O=C1c2c(c3c4ccccc4[nH]c3c3[nH]c4ccccc4c23)C(=O)N1Cc1ccccc1 readout_kind=GI50 result="2.37 µM (inactive)"

I need GI50 for every entry listed below, if you could help.
1. c1ccc2c(c1)NC1(N3CCCCC3)CCCCC21 (centres undefined)
2. CC1(C)CC(=O)c2c(nc(SSc3nc4c(c(-c5ccc(Br)cc5)c3C#N)C(=O)CC(C)(C)C4)c(C#N)c2-c2ccc(Br)cc2)C1
3. CCOc1ccc2c(c1)c(CC(=O)O)cn2C
4. Nc1cc(N2CCCC2)nc(=O)n1Cc1ccccc1
5. Cc1ccc(NC(=O)CCc2nc(N)nc(N)c2-c2ccccc2)cc1C

["> 100 µM (inactive)", "> 10 µM (inactive)", "> 100 µM (inactive)", "> 100 µM (inactive)", "> 100 µM (inactive)"]
